Each record here notes measured Activity.
- Tested on: LNCaP
- TEST: Cell cycle arrest in human LNCaP cells by accumulation at G1 phase at 10 uM after 72 hrs by FACS flow cytometry
- Assay type: functional
RESULT_TYPE: Activity (%)

COMPOUND_STRUCTURE	OBSERVED
COC1(c2cc(F)cc(OCc3cc(-c4ccccc4)n(-c4ccc(Cl)cc4)n3)c2)CCOCC1	75.5
COC1(c2cc(F)cc(OCc3cc(-c4ccccc4)n(-c4ccc(F)cc4)n3)c2)CCOCC1	71.3
COC1(c2cc(F)cc(OCc3cc(-c4ccccc4)n(-c4ccc(OC(F)(F)F)cc4)n3)c2)CCOCC1	74.7
